- Measurement Notes: Oral bioavailability in nude mouse at 50 mg/kg
- Type: ADME, organism-based
- Recorded Conditions: in vivo

[
  {
    "Entry Smiles": "CCN(CC)CCOc1ccc2cc1CN(C)C/C=C/CCOc1cccc(c1)-c1ccnc(n1)N2",
    "bioavailability (%)": 5
  }
]

----------
- Measurement Notes: Half life in dog liver microsomes at 5 uM by LC-MS/MS analysis
- Format: ADME, Canis lupus familiaris, Microsome

[
  {
    "Compound": "CN1C/C=C/CCOc2cccc(c2)-c2ccnc(n2)Nc2cccc(c2)C1 [ZOTIRACICLIB]",
    "half-life at 5 µM, min": 33
  }
]

----------
- Measurement Notes: Apparent permeability of the compound from basolateral to apical side in human Caco2 cells at 5 uM after 21 to 28 days by LC/MS analysis
- Format: ADME, cell-based
- Recorded Conditions: Caco-2
Property Label: Papp B→A at 5 µM

[
  {
    "Entry Smiles": "CN1C/C=C/CCOc2cccc(c2)-c2ccnc(n2)Nc2cccc(c2)C1",
    "Observed Measurement": "27.4 ×10⁻⁶ cm/s"
  }
]

----------
- Target Or Test System: Receptor-type tyrosine-protein kinase FLT3 (Homo sapiens, UniProt P36888)
- Sequence (P36888 whole entry): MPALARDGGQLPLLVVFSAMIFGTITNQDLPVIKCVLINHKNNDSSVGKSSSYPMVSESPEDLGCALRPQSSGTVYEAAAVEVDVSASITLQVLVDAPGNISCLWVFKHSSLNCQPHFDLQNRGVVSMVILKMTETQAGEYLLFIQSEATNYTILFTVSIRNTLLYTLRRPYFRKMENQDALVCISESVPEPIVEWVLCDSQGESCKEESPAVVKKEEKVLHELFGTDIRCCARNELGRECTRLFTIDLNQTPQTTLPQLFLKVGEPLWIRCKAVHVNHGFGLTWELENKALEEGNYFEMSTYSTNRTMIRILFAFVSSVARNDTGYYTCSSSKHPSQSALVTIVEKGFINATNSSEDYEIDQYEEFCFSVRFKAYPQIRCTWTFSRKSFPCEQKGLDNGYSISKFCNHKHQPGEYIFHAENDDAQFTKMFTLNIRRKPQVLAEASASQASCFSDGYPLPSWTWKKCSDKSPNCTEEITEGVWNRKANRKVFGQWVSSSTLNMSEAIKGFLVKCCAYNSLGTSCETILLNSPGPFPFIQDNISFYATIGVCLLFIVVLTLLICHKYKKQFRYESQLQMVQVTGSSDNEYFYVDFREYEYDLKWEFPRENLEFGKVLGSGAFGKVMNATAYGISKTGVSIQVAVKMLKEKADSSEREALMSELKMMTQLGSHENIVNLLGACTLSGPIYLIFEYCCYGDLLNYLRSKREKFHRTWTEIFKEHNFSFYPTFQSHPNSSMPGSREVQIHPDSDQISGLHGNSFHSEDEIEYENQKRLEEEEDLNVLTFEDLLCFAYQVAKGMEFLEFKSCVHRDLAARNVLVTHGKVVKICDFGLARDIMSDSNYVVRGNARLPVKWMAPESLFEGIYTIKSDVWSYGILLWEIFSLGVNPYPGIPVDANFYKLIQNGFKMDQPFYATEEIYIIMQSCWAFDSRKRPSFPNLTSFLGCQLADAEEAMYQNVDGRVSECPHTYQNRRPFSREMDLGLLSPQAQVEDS
- Measurement Notes: Inhibition of recombinant Flt3 using poly(Glu,Tyr) as substrate after 2 hrs by luminescence assay
pIC50: −log10 of the molar value.
pIC50 values for the compounds below.

[
  {
    "Entry Smiles": "CN1C/C=C/CCOc2cccc(c2)-c2ccnc(n2)Nc2ccc(OCCN3CCCCC3)c(c2)C1",
    "Modifier": "=",
    "pIC50": 7.35
  },
  {
    "Entry Smiles": "CN1C/C=C/CCOc2cccc(c2)-c2ccnc(n2)Nc2ccc(OCCN3CCCC3)c(c2)C1",
    "Modifier": "=",
    "pIC50": 7.46
  },
  {
    "Entry Smiles": "CN1C/C=C/CCOc2cccc(c2)-c2ccnc(n2)Nc2cc(cc(NC(=O)N3CCOCC3)c2)C1",
    "Modifier": "=",
    "pIC50": 7.43
  },
  {
    "Entry Smiles": "CCN(CC)CCOc1ccc2cc1CN(C)C/C=C/CCOc1cccc(c1)-c1ccnc(n1)N2",
    "Modifier": "=",
    "pIC50": 7.52
  },
  {
    "Entry Smiles": "CCS(=O)(=O)CCOc1ccc2cc1CN(C)C/C=C/CCOc1cccc(c1)-c1ccnc(n1)N2",
    "Modifier": "=",
    "pIC50": 7.03
  },
  {
    "Entry Smiles": "CN1C/C=C/CNC(=O)c2cccc(c2)-c2ccnc(n2)Nc2cccc(c2)C1",
    "Modifier": "<",
    "pIC50": 5.00
  },
  {
    "Entry Smiles": "COc1ccc2cc1CN(C)C/C=C/CCOc1cccc(c1)-c1ccnc(n1)N2",
    "Modifier": "=",
    "pIC50": 7.18
  },
  {
    "Entry Smiles": "C1=C/CN(C2CC2)Cc2cccc(c2)Nc2nccc(n2)-c2cccc(c2)OCC/1",
    "Modifier": "=",
    "pIC50": 7.38
  },
  {
    "Entry Smiles": "O=C(N1C/C=C/CCOc2cccc(c2)-c2ccnc(n2)Nc2cccc(c2)C1)C(F)(F)F",
    "Modifier": "<",
    "pIC50": 5.00
  },
  {
    "Entry Smiles": "FC(F)(F)CN1C/C=C/CCOc2cccc(c2)-c2ccnc(n2)Nc2ccc(OCCN3CCCC3)c(c2)C1",
    "Modifier": "=",
    "pIC50": 6.96
  },
  {
    "Entry Smiles": "C1=C/CNc2cccc(c2)Nc2nccc(n2)-c2cccc(c2)OCC/1",
    "Modifier": "=",
    "pIC50": 5.54
  }
]

----------
- Measurement Notes: Volume of distribution at steady state in BALB/c mouse at 5 mg/kg, iv by LC-MS/MS analysis
- Format: ADME, organism-based
- Parameters: dose 5 mg/kg, route intravenous
- Recorded Conditions: in vivo, read-out: Vdss
Property Label: Vd (L/kg)

[
  {
    "Entry Smiles": "CN1C/C=C/CCOc2cccc(c2)-c2ccnc(n2)Nc2cccc(c2)C1",
    "Observed Measurement": 23
  }
]

----------
- Measurement Notes: Plasma protein binding in human at 1000 ng/ml after 4 hrs by equilibrium dialysis method
- Assay type: ADME, cell-free
- Recorded Conditions: read-out: PPB
Property Label: fraction unbound at 4 h, 1000 ng/ml

[
  {
    "Entry Smiles": "CN1C/C=C/CCOc2cccc(c2)-c2ccnc(n2)Nc2cccc(c2)C1",
    "Property Label": "fraction unbound at 4 h, 1000 ng/ml",
    "Observed Measurement": 0.001
  }
]

----------
- Measurement Notes: Oral bioavailability in BALB/c mouse at 75 mg/kg by LC-MS/MS analysis
- Type: ADME, organism-based
- Recorded Conditions: in vivo

[
  {
    "Entry Smiles": "CN1C/C=C/CCOc2cccc(c2)-c2ccnc(n2)Nc2cccc(c2)C1",
    "bioavailability": "24%"
  }
]

----------
- Target Or Test System: Tyrosine-protein kinase JAK2 (Homo sapiens, UniProt O60674)
- Sequence (O60674 whole entry): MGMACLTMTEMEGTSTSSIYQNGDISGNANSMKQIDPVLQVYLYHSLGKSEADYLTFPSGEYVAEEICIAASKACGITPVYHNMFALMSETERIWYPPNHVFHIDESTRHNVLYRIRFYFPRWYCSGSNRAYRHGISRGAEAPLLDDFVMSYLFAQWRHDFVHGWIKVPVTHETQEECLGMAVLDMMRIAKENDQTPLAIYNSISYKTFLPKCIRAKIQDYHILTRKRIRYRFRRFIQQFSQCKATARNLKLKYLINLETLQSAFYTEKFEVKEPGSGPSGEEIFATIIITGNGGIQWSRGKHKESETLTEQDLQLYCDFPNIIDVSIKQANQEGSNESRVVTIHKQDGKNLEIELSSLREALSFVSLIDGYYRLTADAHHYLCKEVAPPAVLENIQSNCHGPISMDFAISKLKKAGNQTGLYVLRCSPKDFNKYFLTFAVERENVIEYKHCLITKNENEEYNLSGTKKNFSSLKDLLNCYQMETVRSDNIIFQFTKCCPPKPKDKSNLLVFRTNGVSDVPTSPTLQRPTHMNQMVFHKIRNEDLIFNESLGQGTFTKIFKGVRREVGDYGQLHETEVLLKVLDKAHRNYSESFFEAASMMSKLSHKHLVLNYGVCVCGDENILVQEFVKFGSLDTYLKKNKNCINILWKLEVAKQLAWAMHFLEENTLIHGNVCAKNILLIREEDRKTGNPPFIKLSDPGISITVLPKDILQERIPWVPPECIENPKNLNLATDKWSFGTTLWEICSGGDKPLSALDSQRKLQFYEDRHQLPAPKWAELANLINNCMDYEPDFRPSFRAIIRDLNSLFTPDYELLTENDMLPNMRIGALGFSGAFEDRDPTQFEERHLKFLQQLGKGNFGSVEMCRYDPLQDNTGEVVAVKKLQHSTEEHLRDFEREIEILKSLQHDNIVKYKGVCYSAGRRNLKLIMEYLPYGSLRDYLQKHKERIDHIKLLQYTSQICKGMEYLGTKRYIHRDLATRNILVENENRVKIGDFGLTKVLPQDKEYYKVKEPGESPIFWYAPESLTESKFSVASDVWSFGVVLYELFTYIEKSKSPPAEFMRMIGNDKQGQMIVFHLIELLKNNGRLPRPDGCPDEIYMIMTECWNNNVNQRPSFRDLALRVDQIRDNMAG
- Measurement Notes: Inhibition of recombinant JAK2 using poly(Glu,Ala,Tyr) as substrate after 2 hrs by luminescence assay
Property Label: IC50 (nM)

[
  {
    "Entry Smiles": "FC(F)(F)CN1C/C=C/CCOc2cccc(c2)-c2ccnc(n2)Nc2ccc(OCCN3CCCC3)c(c2)C1",
    "Target Or Test System": "Tyrosine-protein kinase JAK2 (Homo sapiens, UniProt O60674)",
    "Property Label": "IC50",
    "Observed Measurement": 220
  },
  {
    "Entry Smiles": "O=C1CC/C=C\\COc2cccc(c2)-c2ccnc(n2)Nc2cccc(c2)N1",
    "Target Or Test System": "Tyrosine-protein kinase JAK2 (Homo sapiens, UniProt O60674)",
    "Property Label": "IC50",
    "Observed Measurement": 1750
  },
  {
    "Entry Smiles": "CC(C)CN1C/C=C/CCOc2cccc(c2)-c2ccnc(n2)Nc2cccc(c2)C1",
    "Target Or Test System": "Tyrosine-protein kinase JAK2 (Homo sapiens, UniProt O60674)",
    "Property Label": "IC50",
    "Observed Measurement": 1500
  },
  {
    "Entry Smiles": "COCCN1C/C=C/CCOc2cccc(c2)-c2ccnc(n2)Nc2cccc(c2)C1",
    "Target Or Test System": "Tyrosine-protein kinase JAK2 (Homo sapiens, UniProt O60674)",
    "Property Label": "IC50",
    "Observed Measurement": 1600
  },
  {
    "Entry Smiles": "COc1ccc2cc1OCC/C=C/CN(C)Cc1cccc(c1)Nc1nccc-2n1",
    "Target Or Test System": "Tyrosine-protein kinase JAK2 (Homo sapiens, UniProt O60674)",
    "Property Label": "IC50",
    "Observed Measurement": 510
  }
]
